Value source: patent US9513294B2

- TEST_METHOD_NOTES: Absorbance and fluorescence emission spectra (SpectraMax M2)
- Type: physicochemical
- SETTINGS: BDCAC library, Table 3
MEASURED_METRIC: λmax Absorp. (nm)

COMPOUND | MEASURE_UNIT | λmax Absorp.
CCCCCC(O)c1cn(-c2ccc3n2[B-](F)(F)[N+]2=C(N4CCCCC4)C=CC2=C3c2ccc(NC(C)=O)cc2)nn1 (racemic) [BDCAC-69] | nm | 468
CC(=O)Nc1ccc(C2=C3C=CC(N4CCCCC4)=[N+]3[B-](F)(F)n3c2ccc3-n2cc(C3CC3)nn2)cc1 [BDCAC-4] | nm | 467
COc1cccc(-c2cn(-c3ccc4n3[B-](F)(F)[N+]3=C(N5CCCCC5)C=CC3=C4c3ccc(NC(C)=O)cc3)nn2)c1 [BDCAC-27] | nm | 464
CC(=O)Nc1ccc(C2=C3C=CC(N4CCCCC4)=[N+]3[B-](F)(F)n3c2ccc3-n2cc(CN(C)Cc3ccccc3)nn2)cc1 [BDCAC-18] | nm | 465
CCCC(C)c1cn(-c2ccc3n2[B-](F)(F)[N+]2=C(N4CCCCC4)C=CC2=C3c2ccc(NC(C)=O)cc2)nn1 (centres unmarked) [BDCAC-3] | nm | 467
CC(=O)Nc1ccc(C2=C3C=CC(N4CCCCC4)=[N+]3[B-](F)(F)n3c2ccc3-n2cc(-c3ccc(-c4ccccc4)cc3)nn2)cc1 [BDCAC-23] | nm | 465
CCCCCCCCCCc1cn(-c2ccc3n2[B-](F)(F)[N+]2=C(N4CCCCC4)C=CC2=C3c2ccc(NC(C)=O)cc2)nn1 [BDCAC-49] | nm | 467
CC(=O)Nc1ccc(C2=C3C=CC(N4CCCCC4)=[N+]3[B-](F)(F)n3c2ccc3-n2cc(-c3cccc(F)c3)nn2)cc1 [BDCAC-31] | nm | 463
CCCCc1ccc(-c2cn(-c3ccc4n3[B-](F)(F)[N+]3=C(N5CCCCC5)C=CC3=C4c3ccc(NC(C)=O)cc3)nn2)cc1 [BDCAC-12] | nm | 464
CCCCCCCc1cn(-c2ccc3n2[B-](F)(F)[N+]2=C(N4CCCCC4)C=CC2=C3c2ccc(NC(C)=O)cc2)nn1 [BDCAC-50] | nm | 467
CCCCCCCCc1cn(-c2ccc3n2[B-](F)(F)[N+]2=C(N4CCCCC4)C=CC2=C3c2ccc(NC(C)=O)cc2)nn1 [BDCAC-44] | nm | 468
CC(=O)Nc1ccc(C2=C3C=CC(N4CCCCC4)=[N+]3[B-](F)(F)n3c2ccc3-n2cc(CC3CCCC3)nn2)cc1 [BDCAC-7] | nm | 467
CCc1ccc(-c2cn(-c3ccc4n3[B-](F)(F)[N+]3=C(N5CCCCC5)C=CC3=C4c3ccc(NC(C)=O)cc3)nn2)cc1 [BDCAC-46] | nm | 465
COc1ccc2cc(-c3cn(-c4ccc5n4[B-](F)(F)[N+]4=C(N6CCCCC6)C=CC4=C5c4ccc(NC(C)=O)cc4)nn3)ccc2c1 [BDCAC-22] | nm | 465

* * *

- TEST_METHOD_NOTES: Absorbance and fluorescence emission spectra (SpectraMax M2)
- Type: physicochemical
- SETTINGS: MK library, Table 5
MEASURED_METRIC: λmax Emission (nm)

MOLECULE | λmax Emission [nm]
Nc1ccc(C2=C3C=CC(N4CCCC4)=[N+]3[B-](F)(F)n3c2ccc3-n2cc(CCc3ccccc3)nn2)cc1 | 578
CN(Cc1ccccc1)Cc1cn(-c2ccc3n2[B-](F)(F)[N+]2=C(NCc4cc(F)cc(F)c4)C=CC2=C3c2ccc(N)cc2)nn1 | 563
Nc1ccc(C2=C3C=CC(NCc4cc(F)cc(F)c4)=[N+]3[B-](F)(F)n3c2ccc3-n2cc(CO)nn2)cc1 | 562
CCOc1ccccc1CNC1=[N+]2C(=C(c3ccc(N)cc3)c3ccc(-n4cc(CC5CCCCC5)nn4)n3[B-]2(F)F)C=C1 | 563
COc1ccc(OC)c(CNC2=[N+]3C(=C(c4ccc(N)cc4)c4ccc(-n5cc(C6CCCC6)nn5)n4[B-]3(F)F)C=C2)c1 | 563
CCOc1ccccc1CNC1=[N+]2C(=C(c3ccc(N)cc3)c3ccc(-n4cc(CN(C)Cc5ccccc5)nn4)n3[B-]2(F)F)C=C1 | 565
CN(Cc1ccccc1)Cc1cn(-c2ccc3n2[B-](F)(F)[N+]2=C(N4CCCC4)C=CC2=C3c2ccc(N)cc2)nn1 | 583
Nc1ccc(C2=C3C=CC(N4CCCC4)=[N+]3[B-](F)(F)n3c2ccc3-n2cc(CC3CCCCC3)nn2)cc1 | 574
CC1CN(C2=[N+]3C(=C(c4ccc(N)cc4)c4ccc(-n5cc(CCc6ccccc6)nn5)n4[B-]3(F)F)C=C2)CC(C)O1 (centres unmarked) | 578
CCOc1ccccc1CNC1=[N+]2C(=C(c3ccc(N)cc3)c3ccc(-n4cc(C5CCCC5)nn4)n3[B-]2(F)F)C=C1 | 564
Nc1ccc(C2=C3C=CC(N4CCCC4)=[N+]3[B-](F)(F)n3c2ccc3-n2cc(C3CC3)nn2)cc1 | 576
CCCc1cn(-c2ccc3n2[B-](F)(F)[N+]2=C(N4CCCC4)C=CC2=C3c2ccc(N)cc2)nn1 | 575
CCCC(C)c1cn(-c2ccc3n2[B-](F)(F)[N+]2=C(N4CCCC4)C=CC2=C3c2ccc(N)cc2)nn1 (centres unmarked) | 567
CCCCCC(O)c1cn(-c2ccc3n2[B-](F)(F)[N+]2=C(N(C)Cc4ccccc4)C=CC2=C3c2ccc(N)cc2)nn1 (centres unmarked) | 591

* * *

- TEST_METHOD_NOTES: Absorbance and fluorescence emission spectra (SpectraMax M2)
- Format: physicochemical
- SETTINGS: MKCA compound library; absorbance maximum
- Protocol: BDC-8 (Blue): absorbance λmax=473 nm, emission λmax=585 nm; MK101-8 (Green): absorbance λmax=474 nm, emission λmax=563 nm; MKHA374-48 (Yellow): absorbance λmax=468 nm, λem=557 nm. The corresponding spectra of a reported BODIPY (BD-27; Red) are also included for comparison: absorbance λmax=551 nm, emission λmax=568 nm. […] ^1H-NMR, ^19F-NMR and ^13C-NMR spectra were recorded on Bruker ACF300 (300 MHz), DPX300 (300 MHz) and AMX500 (500 MHz) spectrometers. […]
MEASURED_METRIC: λmax Absorp. (nm)

COMPOUND | MEASURE_UNIT | λmax Absorp. (nm)
CCCCCC(O)c1cn(-c2ccc3n2[B-](F)(F)[N+]2=C(N(C)Cc4ccccc4)C=CC2=C3c2ccc(NC(=O)CCl)cc2)nn1 (stereo not drawn) [MKCA195-69] | nm | 466
O=C(CCl)Nc1ccc(C2=C3C=CC(N4CCCC4)=[N+]3[B-](F)(F)n3c2ccc3-n2cc(CC3CCCCC3)nn2)cc1 [MKCA215-8] | nm | 463
O=C(CCl)Nc1ccc(C2=C3C=CC(NCc4cc(F)cc(F)c4)=[N+]3[B-](F)(F)n3c2ccc3-n2cc(C3CCCC3)nn2)cc1 [MKCA412-5] | nm | 468
O=C(CCl)Nc1ccc(C2=C3C=CC(N4CCc5ccccc5C4)=[N+]3[B-](F)(F)n3c2ccc3-n2cc(C3CCCC3)nn2)cc1 [MKCA66-5] | nm | 470
Cc1ccccc1CNC1=[N+]2C(=C(c3ccc(NC(=O)CCl)cc3)c3ccc(-n4cc(CN(C)Cc5ccccc5)nn4)n3[B-]2(F)F)C=C1 [MKCA101-18] | nm | 462
Cc1ccccc1CNC1=[N+]2C(=C(c3ccc(NC(=O)CCl)cc3)c3ccc(-n4cc(CC5CCCCC5)nn4)n3[B-]2(F)F)C=C1 [MKCA101-8] | nm | 464

* * *

- TEST_METHOD_NOTES: Absorbance and fluorescence emission spectra (SpectraMax M2)
- Format: physicochemical
- SETTINGS: BDCCA library, Table 4
- Protocol: BDC-8 (Blue): absorbance λmax=473 nm, emission λmax=585 nm; MK101-8 (Green): absorbance λmax=474 nm, emission λmax=563 nm; MKHA374-48 (Yellow): absorbance λmax=468 nm, λem=557 nm. The corresponding spectra of a reported BODIPY (BD-27; Red) are also included for comparison: absorbance λmax=551 nm, emission λmax=568 nm. […] ^1H-NMR, ^19F-NMR and ^13C-NMR spectra were recorded on Bruker ACF300 (300 MHz), DPX300 (300 MHz) and AMX500 (500 MHz) spectrometers. […]
MEASURED_METRIC: λmax Absorp. (nm)

QUERY_SMILES | λmax Absorp., nm
O=C(CCl)Nc1ccc(C2=C3C=CC(N4CCCCC4)=[N+]3[B-](F)(F)n3c2ccc3-n2cc(COc3ccccc3)nn2)cc1 | 464
CCCCc1ccc(-c2cn(-c3ccc4n3[B-](F)(F)[N+]3=C(N5CCCCC5)C=CC3=C4c3ccc(NC(=O)CCl)cc3)nn2)cc1 | 464
O=C(CCl)Nc1ccc(C2=C3C=CC(N4CCCCC4)=[N+]3[B-](F)(F)n3c2ccc3-n2cc(C3=CCCCC3)nn2)cc1 | 465
O=C(CCl)Nc1ccc(C2=C3C=CC(N4CCCCC4)=[N+]3[B-](F)(F)n3c2ccc3-n2cc(-c3ccc(F)cc3F)nn2)cc1 | 465
O=C(CCl)Nc1ccc(C2=C3C=CC(N4CCCCC4)=[N+]3[B-](F)(F)n3c2ccc3-n2cc(CC3CCCC3)nn2)cc1 | 468
CN(C)c1ccc(-c2cn(-c3ccc4n3[B-](F)(F)[N+]3=C(N5CCCCC5)C=CC3=C4c3ccc(NC(=O)CCl)cc3)nn2)cc1 | 467
COc1cccc(-c2cn(-c3ccc4n3[B-](F)(F)[N+]3=C(N5CCCCC5)C=CC3=C4c3ccc(NC(=O)CCl)cc3)nn2)c1 | 463
O=C(CCl)Nc1ccc(C2=C3C=CC(N4CCCCC4)=[N+]3[B-](F)(F)n3c2ccc3-n2cc(-c3ccc(-c4ccccc4)cc3)nn2)cc1 | 464
